Target: T1, ErbB2 extracellular domain (recombinant) (UniProt P04626 23-652, limits assumed)
T1 construct: extracellular domain; also called whole ectodomain of erbB2; full-size erbB2 ectodomain
Assay: SPR (Biacore 3000), control peptide injected over immobilized receptor extracellular domain
Bridge positions count the residues as written; N and C are the ends. Ends that are not written are not given here.
measured-quantity: Kd

| binder | measured-quantity | value |
| --- | --- | --- |
| FCYIGEVEDQCY (disulfide 2-11 (inferred), also called control peptide) [CD4-G (CD4 receptor-derived cyclic peptide, negative control)] | Kd | > 1000 µM |
